biological target: CYP2C9 (Homo sapiens, UniProt P11712); experiment: Inhibition of CYP2C9 in human liver microsomes at 5 uM using diclofenac sodium as substrate by LC-MS/MS analysis relative to control; format: ADME; conditions: probe diclofenac sodium
Sequence (P11712 whole entry): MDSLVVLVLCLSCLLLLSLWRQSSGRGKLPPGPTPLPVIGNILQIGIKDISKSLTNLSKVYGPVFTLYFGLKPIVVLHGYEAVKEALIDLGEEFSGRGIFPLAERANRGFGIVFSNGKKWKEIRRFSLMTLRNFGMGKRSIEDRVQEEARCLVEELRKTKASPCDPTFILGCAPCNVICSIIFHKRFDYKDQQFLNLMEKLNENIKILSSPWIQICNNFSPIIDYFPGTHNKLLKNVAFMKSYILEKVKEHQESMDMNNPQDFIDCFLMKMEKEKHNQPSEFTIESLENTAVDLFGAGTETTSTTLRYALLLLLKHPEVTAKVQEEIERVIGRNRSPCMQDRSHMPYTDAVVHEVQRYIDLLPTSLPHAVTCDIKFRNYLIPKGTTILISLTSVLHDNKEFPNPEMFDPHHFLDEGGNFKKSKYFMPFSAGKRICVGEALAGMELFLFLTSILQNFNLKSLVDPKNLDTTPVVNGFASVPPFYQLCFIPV
ATTRIBUTE_MEASURED: inhibition at 5 µM (%)

A: Cl.O=C(O)C[C@@H]1COc2cc(OCc3cccc(-c4ccc5c(c4)CN(Cc4ccccc4)CC5)c3)ccc21
B: Nc1ccc(S(=O)(=O)Nc2ccnn2-c2ccccc2)cc1
C: Cl.O=C(O)C[C@@H]1COc2cc(OCc3cccc(-c4ccc5c(c4)CCN(Cc4ccccc4)C5)c3)ccc21
-- ask List the compounds shown above again, sorted by falling inhibition at 5 µM values. I would appreciate it if you listed the labels in the requested order.
-- reply B, C, A
(B: 94.9%, C: 16.2%, A: 3.94%)

====

molecular target: CYP3A4 (Homo sapiens); experiment: Inhibition of CYP3A4 in human liver microsomes at 5 uM using midazolam as substrate by LC-MS/MS analysis relative to control; type: ADME; details: probe midazolam
Sequence (P08684 whole entry): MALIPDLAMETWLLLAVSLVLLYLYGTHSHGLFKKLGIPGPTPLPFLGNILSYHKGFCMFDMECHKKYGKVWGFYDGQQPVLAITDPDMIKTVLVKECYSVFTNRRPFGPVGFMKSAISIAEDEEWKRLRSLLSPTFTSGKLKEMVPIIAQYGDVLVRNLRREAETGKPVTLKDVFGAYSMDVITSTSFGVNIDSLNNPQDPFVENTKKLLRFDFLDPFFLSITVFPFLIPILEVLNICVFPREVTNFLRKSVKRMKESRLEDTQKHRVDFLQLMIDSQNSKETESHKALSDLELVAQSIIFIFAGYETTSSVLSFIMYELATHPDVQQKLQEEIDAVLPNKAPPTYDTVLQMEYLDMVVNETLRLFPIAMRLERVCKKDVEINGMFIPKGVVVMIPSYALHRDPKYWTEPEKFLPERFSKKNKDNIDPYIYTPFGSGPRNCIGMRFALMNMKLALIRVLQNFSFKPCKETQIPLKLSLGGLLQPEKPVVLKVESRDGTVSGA
ATTRIBUTE_MEASURED: inhibition at 5 µM (%)

structure_string=Cl.O=C(O)C[C@@H]1COc2cc(OCc3cccc(-c4ccc5c(c4)CCN(Cc4ccccc4)C5)c3)ccc21 attribute_measured="inhibition at 5 µM" scale_unit=% measured_value=30.7
structure_string=Cc1cc(OCCCS(C)(=O)=O)cc(C)c1-c1cccc(COc2ccc3c(c2)OC[C@H]3CC(=O)O)c1 attribute_measured="inhibition at 5 µM" scale_unit=% measured_value=34
structure_string=Cl.O=C(O)C[C@@H]1COc2cc(OCc3cccc(-c4ccc5c(c4)CN(Cc4ccccc4)CC5)c3)ccc21 attribute_measured="inhibition at 5 µM" scale_unit=% measured_value=27.6

====

target: CYP1A2 (Homo sapiens, UniProt P05177); experiment: Inhibition of CYP1A2 in human liver microsomes at 10 uM using phenacetin as substrate by LC-MS/MS analysis relative to control; type: ADME; details: probe phenacetin
Sequence (P05177 whole entry): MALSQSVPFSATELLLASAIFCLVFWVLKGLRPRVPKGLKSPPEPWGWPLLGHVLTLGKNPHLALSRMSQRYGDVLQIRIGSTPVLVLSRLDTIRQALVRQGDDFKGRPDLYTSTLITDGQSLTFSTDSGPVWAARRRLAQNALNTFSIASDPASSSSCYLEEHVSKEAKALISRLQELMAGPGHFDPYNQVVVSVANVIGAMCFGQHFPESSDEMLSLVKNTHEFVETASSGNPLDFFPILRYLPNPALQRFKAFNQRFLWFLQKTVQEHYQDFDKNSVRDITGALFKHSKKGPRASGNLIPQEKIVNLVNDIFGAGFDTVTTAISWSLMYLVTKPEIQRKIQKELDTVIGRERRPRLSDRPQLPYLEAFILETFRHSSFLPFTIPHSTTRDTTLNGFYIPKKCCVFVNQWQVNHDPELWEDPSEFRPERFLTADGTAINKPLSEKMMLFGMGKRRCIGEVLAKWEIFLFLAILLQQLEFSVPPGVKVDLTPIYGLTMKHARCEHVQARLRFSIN
ATTRIBUTE_MEASURED: inhibition at 10 µM (%)
Please respond with the number in % and leave the unit unwritten.

-- ask Assign inhibition at 10 µM to the following record: `Cc1nc2c([nH]1)c(=O)n(C)c(=O)n2Cc1ccco1`
-- reply 71.4

====

biological target: Free fatty acid receptor 1 (Homo sapiens, UniProt O14842); assay: Transactivation of human GPR40 expressed in HEK293 cells at 10 uM after 24 hrs by Elk-Gal4 luciferase reporter assay relative to TAK-875; assay type: functional, cell-based
Sequence (O14842 whole entry, the tested form may be a part): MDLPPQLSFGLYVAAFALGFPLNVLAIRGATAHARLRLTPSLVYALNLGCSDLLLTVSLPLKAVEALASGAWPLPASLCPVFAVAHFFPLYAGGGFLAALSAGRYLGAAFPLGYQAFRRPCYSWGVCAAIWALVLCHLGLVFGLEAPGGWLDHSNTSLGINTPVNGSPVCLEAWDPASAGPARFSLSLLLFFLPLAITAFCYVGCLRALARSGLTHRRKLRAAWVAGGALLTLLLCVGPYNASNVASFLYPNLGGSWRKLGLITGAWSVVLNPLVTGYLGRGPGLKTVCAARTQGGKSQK
ATTRIBUTE_MEASURED: Activity (%)

structure_string=CC(C)(CC(=O)O)c1ccc(OCc2cccc(-c3ccc4c(c3)CN(Cc3ccccc3)C4)c2)cc1 measured_value=23.8
structure_string=CCN1CCc2c(cccc2-c2cccc(COc3ccc4c(c3)OC[C@H]4CC(=O)O)c2)C1 measured_value=7.8
structure_string=O=C(O)C[C@@H]1COc2cc(OCc3cccc(-c4ccc5c(c4)CCN(CCc4ccccc4)C5)c3)ccc21 measured_value=85
structure_string=O=C(O)COc1ccc(OCc2cccc(-c3ccc4c(c3)CCN(Cc3ccccc3)C4)c2)cc1 measured_value=17.8

1: O=C(O)C[C@@H]1COc2cc(OCc3cccc(-c4ccc5c(c4)CCN(C(=O)Cc4ccccc4)C5)c3)ccc21
2: CC(C)(CC(=O)O)c1ccc(OCc2cccc(-c3ccc4c(c3)CCN(Cc3ccccc3)C4)c2)cc1
3: O=C(O)COc1ccc(OCc2cccc(-c3ccc4c(c3)CN(Cc3ccccc3)C4)c2)cc1
4: CC(C)(CC(=O)O)c1ccc(OCc2cccc(-c3cccc4c3CCN(Cc3ccccc3)C4)c2)cc1
-- ask Number of molecules to sort: 4. Sort criterion: Activity, ascending. Give your ranking as a list of the labels in the requested order.
-- reply 3, 1, 2, 4
(3: 18.9%, 1: 31.6%, 2: 58.6%, 4: 90%)

====

target: Free fatty acid receptor 1 (Homo sapiens); assay: Transactivation of human GPR40 expressed in HEK293 cells at 10 uM after 24 hrs by Elk-Gal4 luciferase reporter assay relative to TAK-875; format: functional, cell-based
ATTRIBUTE_MEASURED: Activity (%)

structure_string=O=C(O)C[C@@H]1COc2cc(OCc3cccc(-c4ccc5c(c4)CN(Cc4ccccc4)C5)c3)ccc21 attribute_measured=Activity measured_value=89.8
structure_string=CC(C)(CC(=O)O)c1ccc(OCc2cccc(-c3ccc4c(c3)CN(Cc3ccccc3)CC4)c2)cc1 attribute_measured=Activity measured_value=22.8
structure_string=Cl.O=C(O)C[C@@H]1COc2cc(OCc3cccc(-c4ccc5c(c4)CCN(Cc4ccccc4)C5)c3)ccc21 attribute_measured=Activity measured_value=136
structure_string=O=C(O)C[C@@H]1COc2cc(OCc3cccc(-c4cccc5c4CCN(C(=O)c4ccccc4)C5)c3)ccc21 attribute_measured=Activity measured_value=84.2
structure_string=CC(=O)N1CCc2c(cccc2-c2cccc(COc3ccc4c(c3)OC[C@H]4CC(=O)O)c2)C1 attribute_measured=Activity measured_value=43.6

P: CC(=O)N1CCc2cc(-c3cccc(COc4ccc5c(c4)OC[C@H]5CC(=O)O)c3)ccc2C1
Q: O=C(O)COc1ccc(OCc2cccc(-c3cccc4c3CCN(Cc3ccccc3)C4)c2)cc1
-- ask Consider entries P and Q . Which has the numerically lower Activity? # respond with the chosen item's label
-- reply P

I: CC(=O)N1Cc2ccc(-c3cccc(COc4ccc5c(c4)OC[C@H]5CC(=O)O)c3)cc2C1
II: O=C(O)COc1ccc(OCc2cccc(-c3ccc4c(c3)CN(Cc3ccccc3)CC4)c2)cc1
-- ask Please state the entry with greater Activity among I and II . Mark your selection by writing its label.
-- reply I

====

target: Free fatty acid receptor 1 (Homo sapiens, UniProt O14842); assay: Transactivation of human GPR40 expressed in HEK293 cells at 10 uM after 24 hrs by Elk-Gal4 luciferase reporter assay relative to TAK-875; assay type: functional, cell-based
ATTRIBUTE_MEASURED: Activity (%)

1: O=C(O)C[C@@H]1COc2cc(OCc3cccc(-c4ccc5c(c4)CN(C(=O)Cc4ccccc4)CC5)c3)ccc21
2: O=C(O)C[C@@H]1COc2cc(OCc3cccc(-c4cccc5c4CCN(CCc4ccccc4)C5)c3)ccc21
-- ask Compare reported Activity values for 1 and 2 . Which is lower? State your choice using its label.
-- reply 1

a: O=C(O)C[C@@H]1COc2cc(OCc3cccc(-c4ccc5c(c4)CN(CCc4ccccc4)C5)c3)ccc21
b: O=C(O)C[C@@H]1COc2cc(OCc3cccc(-c4ccc5c(c4)CCN(C(=O)c4ccccc4)C5)c3)ccc21
-- ask Between the two listed entries a and b , which has its Activity at the higher number? // output: label of the selected item
-- reply a
(a: 77%, b: 39.8%)

I: O=C(O)C[C@@H]1COc2cc(OCc3cccc(-c4ccc5c(c4)CN(C(=O)c4ccccc4)C5)c3)ccc21
II: Cl.O=C(O)C[C@@H]1COc2cc(OCc3cccc(-c4ccc5c(c4)CN(Cc4ccccc4)CC5)c3)ccc21
-- ask Lower value for measured Activity? Options: I , II Return value: the label identifying the chosen record.
-- reply I
(I: 60.8%, II: 108%)

a: O=C(O)C[C@@H]1COc2cc(OCc3cccc(-c4cccc5c4CCN(Cc4ccccc4)C5)c3)ccc21
b: O=C(O)C[C@@H]1COc2cc(OCc3cccc(-c4ccc5c(c4)CN(C(=O)Cc4ccccc4)C5)c3)ccc21
-- ask Between a and b , whose recorded Activity is greater? Indicate which entry you chose by stating its label.
-- reply a
(a: 89.4%, b: 34.8%)

====

biological target: CYP1A2 (Homo sapiens); assay: Inhibition of CYP1A2 in human liver microsomes at 5 uM using phenacetin as substrate by LC-MS/MS analysis relative to control; type: ADME; conditions: probe phenacetin
ATTRIBUTE_MEASURED: inhibition at 5 µM (%)

structure_string=Cl.O=C(O)C[C@@H]1COc2cc(OCc3cccc(-c4ccc5c(c4)CN(Cc4ccccc4)CC5)c3)ccc21 measured_value=25.7
structure_string=Cl.O=C(O)C[C@@H]1COc2cc(OCc3cccc(-c4ccc5c(c4)CCN(Cc4ccccc4)C5)c3)ccc21 measured_value=20.9
structure_string=Cc1cc(OCCCS(C)(=O)=O)cc(C)c1-c1cccc(COc2ccc3c(c2)OC[C@H]3CC(=O)O)c1 measured_value=28

====

target: Free fatty acid receptor 1 (Homo sapiens, UniProt O14842); assay: Transactivation of human GPR40 expressed in HEK293 cells after 24 hrs by Elk-Gal4 luciferase reporter assay
pEC50: −log10 of the molar value.
ATTRIBUTE_MEASURED: pEC50

A: O=C(O)C[C@@H]1COc2cc(OCc3cccc(-c4ccc5c(c4)CN(Cc4ccccc4)C5)c3)ccc21
B: Cl.O=C(O)C[C@@H]1COc2cc(OCc3cccc(-c4ccc5c(c4)CCN(Cc4ccccc4)C5)c3)ccc21
-- ask // which entry has the larger pEC50 value, A or B ? Pick one and reply with its label.
-- reply B

I: O=C(O)C[C@@H]1COc2cc(OCc3cccc(-c4cccc5c4CCN(Cc4ccccc4)C5)c3)ccc21
II: CC(C)(CC(=O)O)c1ccc(OCc2cccc(-c3cccc4c3CCN(Cc3ccccc3)C4)c2)cc1
-- ask Lab note: check whether I or II shows the higher recorded pEC50. Answer by stating the label of the chosen item.
-- reply II
(II: 6.10, I: 5.27)
